Provenance of the data: paper PMC9371903

Biological target: SUMO2 (residues 2-93 of human SUMO2 with a C48A substitution) (human, UniProt P61956 2-93, C48A)
Sequence (P61956 2-93 C48A): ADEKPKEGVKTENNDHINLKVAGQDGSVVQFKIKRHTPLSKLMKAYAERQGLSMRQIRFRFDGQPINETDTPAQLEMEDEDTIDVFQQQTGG
Assay: ITC
pKd: −log10 of the molar value.

binder	pKd
YKTSVATQADPEEIIVLDDDD [Daxx-SIM-2SD (Daxx-SIM with S/D substitutions at positions 737 and 739)]	6.00
